These data points were gathered from ChEMBL document CHEMBL3988442.

target: Arginase-2, mitochondrial (Homo sapiens) (UniProt P78540); experiment: in vitro enzyme assay to detect the production of urea directly proportional to the activity of Arginase II; format: functional; set-up: scale not given: in the data most compounds retested in dose-response had high values; settings: 33.3 µM
Sequence (P78540 whole entry): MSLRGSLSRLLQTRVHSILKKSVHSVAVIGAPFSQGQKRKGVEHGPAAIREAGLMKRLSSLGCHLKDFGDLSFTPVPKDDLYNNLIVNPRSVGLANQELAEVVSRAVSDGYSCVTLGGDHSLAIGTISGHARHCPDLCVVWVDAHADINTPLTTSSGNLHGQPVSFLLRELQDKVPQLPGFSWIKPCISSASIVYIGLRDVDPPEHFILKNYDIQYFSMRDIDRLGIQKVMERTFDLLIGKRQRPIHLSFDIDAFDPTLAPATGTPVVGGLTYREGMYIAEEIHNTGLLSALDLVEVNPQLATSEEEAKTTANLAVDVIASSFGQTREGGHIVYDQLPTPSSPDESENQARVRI
A collection of molecules and their measured Percent Effect

molecule	Percent Effect / %
CC(CNC(=O)c1ccccc1Oc1cccnc1)N(C)C (stereo not drawn)	-0.476
Cc1nc(N2CCCC2)nc2c1CCN(Cc1ccco1)CC2	-45.3
CN(Cc1cnn(C)c1)C(=O)NC1CCN(Cc2ccccn2)CC1	0.356
CCc1nc(CN(C)CC(c2cccs2)N2CCOCC2)no1 (stereo not drawn)	-2.4
CCCc1noc(CN2CCCC2c2ccsc2)n1 (stereo not drawn)	-8.37
CN(C)C(=O)CN1C[C@@H]2CC[C@H](C1)N(C(=O)CCn1cncn1)C2	-0.952
Cc1cnn(CC2CCCN2C(=O)CCCc2nc(C)no2)c1 (stereo not drawn)	-3.55
Cn1cccc1C(=O)N1CC[C@H]2C[C@@H](c3ccncn3)O[C@@H]2C1	6.69
O=C(NCCOc1ccc(F)c(F)c1)NCc1ccncc1	-2.86
Cc1ccc(N(C)C2CCN(C(=O)CCc3ccco3)CC2)nn1	0.554
C=C(C)CN(Cc1cccc(O)c1)C1CCC(O)CC1 (stereo not drawn)	-0.248
CN(C)CC(=O)N1CCOCC2(C1)CN(c1ccccc1)C(=O)CO2 (stereo not drawn)	-56.8
COCCC(=O)N1CCC2(CN(Cc3ccc(OC)c(F)c3)C2)C1	0.399
CCc1ncncc1C(=O)N1CCN(Cc2ccco2)CC1	3.24
CCc1n[nH]c(C2CN(CCc3ccncc3)CCO2)n1 (stereo not drawn)	0.215
Cc1nc(C)n(C2CCCN(C(=O)c3ccc(N(C)C)nn3)C2)n1 (stereo not drawn)	-0.632
CCCC(NC(=O)c1ccc(OC)cc1F)c1nnn[nH]1 (stereo not drawn)	17.2
COc1ccnc(N2CCN(C(=O)Cc3ccc(C#N)cc3)CC2)n1	1.9
O=C(NCc1ccccn1)NC1CCOc2ccccc21 (stereo not drawn)	1.29
CCc1ccccc1C(=O)N1CCN(S(C)(=O)=O)[C@@H](C)C1	3.18
N#CC1(C(=O)Nc2ccc(OC(F)F)cc2)CCCC1	2.21
NC(=O)C1CN(Cc2c[nH]cn2)CCN(C2CCOCC2)C1 (stereo not drawn)	18.8
O=c1ccc2c(n1CCN1CCCC1)CCN(Cc1ccoc1)CC2	-9.58
Cn1cnc(S(=O)(=O)N2CCN(Cc3ccco3)CC2)c1Cl	0
Cc1c(C2CCCN(C(=O)Cc3ccccn3)C2)n2c(nc1=O)CCC2 (stereo not drawn)	0.696
CC(C)OCCN1CCN(C(=O)c2cccc(CC#N)c2)CC1	4.27
CC(c1ccc(F)c(F)c1)N1CCN(Cc2nccn2C)CC1 (stereo not drawn)	5.69
O=c1oc(-c2ccc(F)cc2)nn1CN1CCN(C2CCCC2)CC1	-3.56
Cc1ccc(C(=O)N2CCC3(CC2)CC(c2ccccc2)C(=O)N3)cn1 (stereo not drawn)	-48.9
CN(Cc1ccc(OC(F)F)cc1)C(=O)CS(=O)(=O)c1ccc(Cl)cc1	-1.91
CN1CCN(C(=O)c2cncc(CC3CCCN(C)C3)c2)CC1 (stereo not drawn)	-7.66
O=C(C1CCCCN1Cc1nc(-c2ccco2)no1)N1CCCC1 (stereo not drawn)	-1.66
CCc1nc(NS(=O)(=O)c2ccc(C)cc2Cl)no1	1.56
Cc1csc(N2CCN(C(=O)CCC(=O)c3ccc(C)s3)CC2)n1	-12.4
Cc1ccc(CC(=O)N2CCOC(c3nc(C)n[nH]3)C2)cn1 (stereo not drawn)	5.74
Cc1cccc(CN(Cc2ccc(C)o2)C2CC(C)(C)NC(C)(C)C2)n1	-3.48
CCC1=N[C@@]2(CC[C@@H]3CN(CC(=O)N(C)C)C[C@@H]32)C(=O)N1CC1CC1	-12.2
CCN1C[C@@H]2[C@@H](OC)CCN(S(=O)(=O)c3ccccc3)[C@@H]2C1	0.233
